As shown below, each of these molecules has a reported FI (650)/FI (620) value.
- measuredTarget: BTK-1h (Homo sapiens, UniProt Q06187)
- Construct: The BTK kinase domain was diluted to 2 μM in the buffer, and 2 μM 1h was added; made in house
- Sequence (Q06187 402-655): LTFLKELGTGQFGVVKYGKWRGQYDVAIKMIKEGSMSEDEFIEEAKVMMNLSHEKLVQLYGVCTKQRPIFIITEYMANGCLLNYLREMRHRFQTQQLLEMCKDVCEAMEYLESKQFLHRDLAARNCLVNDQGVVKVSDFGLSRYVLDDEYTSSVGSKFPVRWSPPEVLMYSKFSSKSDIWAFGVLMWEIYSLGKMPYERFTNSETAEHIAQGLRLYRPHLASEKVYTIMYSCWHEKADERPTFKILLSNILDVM
- test: High-throughput screening with 1h-labeled BTK
- Assay type: binding
- protocolConditions: Dataset S2A; 200 μM compound, BTK-1h, 32 °C, 10 min
- Description: The collection was composed of BTK binding compounds obtained in our previous luminescence screen[37] (Data set S2). […] The resulting BTK-1h (50 μL) was added to the inhibitors.
Write the number on its own, no unit after it.

[
  {
    "structure": "C=CC(=O)Nc1cccc(C)c1Nc1ncc2cc(-c3c(Cl)c(OC)cc(OC)c3Cl)ccc2n1",
    "measuredTarget": "BTK-1h (Homo sapiens, UniProt Q06187)",
    "FI (650)/FI (620)": 1.043
  },
  {
    "structure": "O=C(Nc1ccc(OC(F)(F)F)cc1)c1sccc1NCc1ccnc2ccccc12",
    "measuredTarget": "BTK-1h (Homo sapiens, UniProt Q06187)",
    "FI (650)/FI (620)": 1.167
  }
]

Please find the next molecule below.
Query: Identify FI (650)/FI (620) associated with the molecule CCOc1cc2ncc(C#N)c(Nc3ccc(F)c(Cl)c3)c2cc1NC(=O)/C=C/CN(C)C
Result: 0.9721
